B1: TPR 5TU (parent)
chain: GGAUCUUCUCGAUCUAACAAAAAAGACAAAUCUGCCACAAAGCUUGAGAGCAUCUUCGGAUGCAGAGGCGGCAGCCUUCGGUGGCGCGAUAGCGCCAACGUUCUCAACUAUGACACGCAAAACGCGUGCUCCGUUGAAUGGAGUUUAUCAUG

Variants of: B1
Experiment Notes: polymerase ribozyme fitness, log enrichment relative to wild type (log ratio); higher = more active; in vitro selection for triplet polymerase activity
Variants at the floor of the assay were thinned out.

Mutation Key: U9A A21G A41C G48U A49C U111G C131A
polymerase ribozyme fitness (log ratio): ≤ -4.2
//
Mutation Key: C8A U31A U56G C63A G68U C99A G128U
polymerase ribozyme fitness (log ratio): ≤ -4.2
//
Mutation Key: A3U A26U C57U C108U C125A A147C U148G
polymerase ribozyme fitness (log ratio): ≤ -4.2
//
Mutation Key: A28U U45A C57U A60C G84U A98U G117C
polymerase ribozyme fitness (log ratio): ≤ -4.2
//
Mutation Key: U44G G81C C96U C108G
polymerase ribozyme fitness (log ratio): ≤ -4.2
//
Mutation Key: G68A C75A G128A A150C
polymerase ribozyme fitness (log ratio): ≤ -4.2
//
Mutation Key: G86U A147G
polymerase ribozyme fitness (log ratio): -3.45
//
Mutation Key: C103U
polymerase ribozyme fitness (log ratio): -0.357
//
Mutation Key: A47C U53A C95U G136C
polymerase ribozyme fitness (log ratio): -3.62
//
Mutation Key: A21C C87U
polymerase ribozyme fitness (log ratio): 0.0419
//
Mutation Key: G46A G70U C85G
polymerase ribozyme fitness (log ratio): ≤ -4.2
//
Mutation Key: A29U A40C G46A G67A G81A C85G A113C A137G
polymerase ribozyme fitness (log ratio): ≤ -4.2
//
Mutation Key: C8A A17U U55A G81C C87A A91U U144C U145C
polymerase ribozyme fitness (log ratio): ≤ -4.2
//
Mutation Key: A24U A49C C54U C75G C85A A122U U144C A147C
polymerase ribozyme fitness (log ratio): ≤ -4.2
//
Mutation Key: C85G A119G
polymerase ribozyme fitness (log ratio): -1.7
//
Mutation Key: C5A U44C C76A G84A C131U A150U
polymerase ribozyme fitness (log ratio): ≤ -4.2
//
Mutation Key: A23G U44A G88A
polymerase ribozyme fitness (log ratio): -4.1
//
Mutation Key: G11C A30U C95A C108G U148A
polymerase ribozyme fitness (log ratio): ≤ -4.2
